- TARGET: HLA-A*02:01 (Homo sapiens, UniProt P04439, D140Y/D185E/D98H/E176V/E277Q/G131W/G231S/I119V/I121R/I166T/I218V/L300P/L318F/N151K/N90K/P208A/P217A/Q86G/Q94H/R138H/R169H/T345S)
- METHOD_NOTES: MHC binding assay: UV-ligand exchange with beta2m ELISA (peptide exchange yield)
- CONDITION_SUMMARY: binding to HLA-A*02:01
RECORDED_ENDPOINT: Peptide exchange (MHC class I binding score, peptide exchange yield)

In the examples that follow, each entry is paired with its recorded Peptide exchange (MHC class I binding score, peptide exchange yield).
[
  {
    "SUBSTANCE": "573 (ILVANAIVGV; listed as Homo sapiens) [compound 573]",
    "RESULT": "“+++” (≥50 = +++)"
  },
  {
    "SUBSTANCE": "472 (KLLEVSDDPQV; listed as Homo sapiens) [compound 472]",
    "RESULT": "“+++” (≥50 = +++)"
  },
  {
    "SUBSTANCE": "503 (SLNHFTHSV; listed as Homo sapiens) [compound 503]",
    "RESULT": "“+++” (≥50 = +++)"
  },
  {
    "SUBSTANCE": "124 (ALYETELADA; listed as Homo sapiens) [compound 124]",
    "RESULT": "“++” (≥20% = ++)"
  }
]

Note to self: Peptide exchange (MHC class I binding score, peptide exchange yield) recorded for 318 (GLINTGVLSV; listed as Homo sapiens) [compound 318] was “++” (≥20% = ++)

Just so you know, measured Peptide exchange (MHC class I binding score, peptide exchange yield) for 270 (LLLDEEGTFSL; listed as Homo sapiens) [compound 270] came out at “++” (≥20% = ++)

Looking up 220 (LLQKFVPEI; listed as Homo sapiens) [compound 220] , I found its Peptide exchange (MHC class I binding score, peptide exchange yield) recorded as “++” (≥20% = ++)

###

- TARGET: HLA-A*02:01 (Homo sapiens, UniProt P04439, D140Y/D185E/D98H/E176V/E277Q/G131W/G231S/I119V/I121R/I166T/I218V/L300P/L318F/N151K/N90K/P208A/P217A/Q86G/Q94H/R138H/R169H/T345S)
- METHOD_NOTES: MHC binding assay: UV-ligand exchange with beta2m ELISA (peptide exchange yield)
- CONDITION_SUMMARY: binding to HLA-A*02:01
RECORDED_ENDPOINT: Peptide exchange (MHC class I binding score, peptide exchange yield)

[
  {
    "SUBSTANCE": "84 (VTFGEKLLGV; listed as Homo sapiens) [compound 84]",
    "RESULT": "“++” (≥20% = ++)"
  },
  {
    "SUBSTANCE": "176 (YLMEGSYNKVFL; listed as Homo sapiens) [compound 176]",
    "RESULT": "“++” (≥20% = ++)"
  },
  {
    "SUBSTANCE": "262 (LLWGDLIWL; listed as Homo sapiens) [compound 262]",
    "RESULT": "“+++” (≥50 = +++)"
  },
  {
    "SUBSTANCE": "306 (ALVNVQIPL; listed as Homo sapiens) [compound 306]",
    "RESULT": "“+++” (≥50 = +++)"
  },
  {
    "SUBSTANCE": "504 (GLSDGNPSL; listed as Homo sapiens) [compound 504]",
    "RESULT": "“++” (≥20% = ++)"
  },
  {
    "SUBSTANCE": "301 (FLVEDLVDSL; listed as Homo sapiens) [compound 301]",
    "RESULT": "“+++” (≥50 = +++)"
  }
]

Data point: 212 (ALWDQDNLSV; listed as Homo sapiens) [compound 212] ; Peptide exchange (MHC class I binding score, peptide exchange yield) = “++” (≥20% = ++)

The reported Peptide exchange (MHC class I binding score, peptide exchange yield) of the substance 154 (ALDDGTPAL; listed as Homo sapiens) [compound 154] was “++” (≥20% = ++)
